biological target: L-type calcium channel (Homo sapiens, UniProt O60840+Q01668+Q13698+Q13936); test: Binding affinity to L-type calcium channel (unknown origin) at 10 uM relative to control; type: protein assay; conditions: read-out: Activity
Assay metric: activity at 10 µM

(Q) Could you share which activity at 10 µM value was measured for `CCOc1c(Cl)cc(C(=O)Nc2ccc(C(=O)O)c(C)c2)cc1OC(C)C` ?
(A) ≤ 25%

---

molecular target: MAO-B (amine oxidase [flavin-containing] B) (Homo sapiens, UniProt P27338); experiment: Binding affinity to recombinant human MAO-B at 10 uM after 60 mins by luminescence analysis relative to control; settings: read-out: Activity
Sequence (P27338 whole entry): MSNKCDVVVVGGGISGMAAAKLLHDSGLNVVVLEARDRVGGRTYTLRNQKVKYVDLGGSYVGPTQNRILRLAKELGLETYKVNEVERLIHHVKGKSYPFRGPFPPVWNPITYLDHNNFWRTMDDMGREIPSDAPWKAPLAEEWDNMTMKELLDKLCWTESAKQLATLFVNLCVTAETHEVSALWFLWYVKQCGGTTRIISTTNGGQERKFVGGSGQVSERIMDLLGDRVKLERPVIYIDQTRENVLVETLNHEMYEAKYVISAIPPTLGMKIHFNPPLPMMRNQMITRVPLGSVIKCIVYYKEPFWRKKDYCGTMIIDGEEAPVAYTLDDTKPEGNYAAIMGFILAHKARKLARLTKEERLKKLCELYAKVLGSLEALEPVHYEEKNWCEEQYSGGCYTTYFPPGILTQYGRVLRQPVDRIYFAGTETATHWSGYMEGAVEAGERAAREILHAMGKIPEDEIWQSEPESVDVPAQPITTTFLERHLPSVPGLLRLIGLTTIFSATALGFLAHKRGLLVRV
Assay metric: activity at 1 h, 10 µM

(Q) Could you share which activity at 1 h, 10 µM value was measured for `CCOc1c(Cl)cc(C(=O)Nc2ccc(C(=O)O)c(C)c2)cc1OC(C)C` ?
(A) ≤ 25%
